Target: T1, recombinant purified human IL-12 p70 (human, UniProt P29459 23-219)
T1 construct: Disulfide-linked heterodimer of p35 and p40; also called hIL-12; Hu IL-12
T1 sequence 1: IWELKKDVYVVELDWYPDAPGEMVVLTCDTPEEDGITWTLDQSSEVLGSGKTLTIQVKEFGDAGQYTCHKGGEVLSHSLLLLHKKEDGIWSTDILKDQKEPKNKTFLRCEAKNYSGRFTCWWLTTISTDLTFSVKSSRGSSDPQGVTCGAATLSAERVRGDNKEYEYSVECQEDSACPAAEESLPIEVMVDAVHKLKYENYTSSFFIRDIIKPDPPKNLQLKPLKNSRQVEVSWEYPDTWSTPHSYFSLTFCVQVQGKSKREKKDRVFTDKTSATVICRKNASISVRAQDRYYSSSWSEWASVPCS
T1 sequence 2: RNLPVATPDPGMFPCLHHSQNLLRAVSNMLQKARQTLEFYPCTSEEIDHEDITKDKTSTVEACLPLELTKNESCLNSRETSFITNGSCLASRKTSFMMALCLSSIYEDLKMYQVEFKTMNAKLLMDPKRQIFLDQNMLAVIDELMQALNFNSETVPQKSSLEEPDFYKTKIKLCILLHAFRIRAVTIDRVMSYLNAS
Experiment: SPR (Biacore), mAb captured on anti-mouse IgG Fc, IL-12 p70 as analyte
Description: The BIACORE assay (Biacore, Inc, Piscataway, N.J.) determines the affinity of antibodies with kinetic measurements of on-, off-rate constants. Binding of antibodies to recombinant purified human IL-12 p70 or recombinant purified human IL-12 p40 were determined by surface plasmon resonance-based measurements with a Biacore® 3000 instrument (Biacore® AB, Uppsala, Sweden) using running HBS-EP (10 mM HEPES [pH 7.4], 150 mM NaCl, 3 mM EDTA, and 0.005% surfactant P20) at 25° C. […]
With a cut-off of 500000 M⁻¹ s⁻¹, any kon strictly below it is called 1.0; any kon meeting it or above is called 0.0.

query: Report whether reported kon is lower than 500000 M⁻¹ s⁻¹ (strictly) for murine anti-human IL-12p40 monoclonal antibody 1A6 (antibody, V domains shown, Murine mAb) VH: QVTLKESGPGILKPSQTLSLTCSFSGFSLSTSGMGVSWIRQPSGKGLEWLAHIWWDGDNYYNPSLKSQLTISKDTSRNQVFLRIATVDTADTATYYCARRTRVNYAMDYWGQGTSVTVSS VL: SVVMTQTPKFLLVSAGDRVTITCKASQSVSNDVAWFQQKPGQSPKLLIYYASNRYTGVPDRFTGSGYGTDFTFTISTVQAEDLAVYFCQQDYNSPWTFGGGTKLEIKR
result: 1.0

query: Is the reported kon for murine anti-human IL-12p40 monoclonal antibody 4B4 (antibody, V domains shown, Murine mAb) VH: QVTLKESGPGILKPSQTLSLTCSLSGFSLSTSGMGVSWIRQPSGKGLEWLAHIWWDGDSYSNPSLRSRLTISRDTSRNQVFLRIATVDTADTATYYCARRTRVNYAMDYWGQGTSVTVSS VL: SVVMTQTPKFLLVSAGDRVTMTCKASQSVSNDVAWFQQKPGQSPKLLIYYASNRYTGVPDRFTGSGYGTDFTFTISTVQAEDLAVYFCQQDYNSPWTFGGGTKLEIKR strictly below 500000 M⁻¹ s⁻¹?
result: 1.0

query: Is the reported kon for murine anti-human IL-12p40 monoclonal antibody 5E8 (antibody, V domains shown, Murine mAb) VH: QIQLVQSGPELKKPGETVKISCKASGYSFTDYSMHWVKQAPGKGLKWMDWINTETGEPTYADDFKGRFAFSLETSASTAYLQINNLKNEDTATYFCSRRRYRAFDYWGQGTTLTVSS VL: SIVMTQSPKFLLVSAGDRVTITCKASQSVSNDVAWYQQKLGQSPKLLIYYASNRYTGVPDRFTGSGYGTDFTFTINTVQAEDLAVYFCQQDYTSPYTFGGGTKLEIQR strictly below 500000 M⁻¹ s⁻¹?
result: 0.0

query: Regarding murine anti-human IL-12p40 monoclonal antibody 3G7 (antibody, V domains shown, Murine mAb) VH: QVQLQQSGAELMKPGASVKISCKATGYTFNDYWIEWVKQRPGHGLEWIGGFSHGSGSTNYNEKFKGKATFTADSSSNTAYMQLSSLTSEDSAVYYCARRRFRGMDYWGQGTSVTVSS VL: SIVMTQTPKFLLVSAGDRVTITCKASQSVSNDVAWYQQKPGQSPKLLIYYASNRYTGVPDRFTGSGYGTDFTFTITTVQAEDLAVYFCQQDYSSPWSFGGGTKLEIKR , kindly confirm whether its kon is beneath 500000 M⁻¹ s⁻¹.
result: 0.0

query: Is the reported kon for murine anti-human IL-12p40 monoclonal antibody 7G3 (antibody, V domains shown, Murine mAb) VH: EVQLQQSGAEFVRSGASVKLSCTASGLNIKDYYIHWVKQRPEQVLDWIGWIDPENGYSEYAPRFQDKATMTADTSSNTAYLHLSSLTSEDTAVYYCNPGELARYFDYWGQGTTLTVSS VL: DIVLSQSPATLSVTPGDSVSLSCRASQSISKNLHWYQQKSHESPRLLIKYTSQSISGIPSRFSGSGSGTDFTLSINSVETEDFGMYFCQQSISWPLTFGAGTKLELKR strictly below 500000 M⁻¹ s⁻¹?
result: 0.0

---
query: Does the reported kon of the following binder sit strictly below 500000 M⁻¹ s⁻¹? murine anti-human IL-12p40 monoclonal antibody 1D4 (antibody, V domains shown, Murine mAb purified from hybridoma supernatant) VH: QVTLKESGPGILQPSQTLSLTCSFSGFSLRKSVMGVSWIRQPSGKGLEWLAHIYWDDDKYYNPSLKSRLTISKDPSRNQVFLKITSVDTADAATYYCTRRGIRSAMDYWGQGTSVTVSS VL: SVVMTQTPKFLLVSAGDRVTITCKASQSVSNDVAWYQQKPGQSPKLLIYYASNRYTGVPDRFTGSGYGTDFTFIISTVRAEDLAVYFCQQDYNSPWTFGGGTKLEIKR
result: 1.0

query: Say whether its kon is strictly beneath 500000 M⁻¹ s⁻¹. Entry: murine anti-human IL-12p40 monoclonal antibody 1H6 (antibody, V domains shown, Murine mAb) VH: EVKLVESGGGLVQPGGSRKLSCAASGFTFSDYGMVWVRQAPGKGLEWVAYISSGSSTIHYADTMKGRFTISRDNPKNTLFLQMSSLRSEDTAMYYCARRHYYAMDYWGQGTSVTVSS VL: SFVMTQTPKFLLVSAGDRVTITCKASQSVSNDVAWYQQKPGQSPKLLIYYASNRYTGVPDRFTGTGYGTDFTFTISTVQAEDLAVYFCQQDYTSPFTFGSGTKLEIKR
result: 1.0

query: Problem: For the binder murine anti-human IL-12p40 monoclonal antibody 8E1 (antibody, V domains shown, Murine mAb; also called biotinylated 8E1) VH: EVKLVESGGGLVQPGGSRKLSCAASGFTFSDYGMVWVRQAPGKGLEWVASISSGSSNIYYADTVKGRFTISRDDPNNTLFLQMRSLRSEDTAMYYCARNPYWGQGTTLTVSS VL: DIVMTQSQKFMSTSVGDRVSVTCKASQNVGTNVAWYQQKPGQSPKGLIYSASHRYSGVPDRFAGSGSGTDFTLTISNVQSEDLAEYFCQQYNSYPLTFGGGTKLELKR , is kon under 500000 M⁻¹ s⁻¹?
result: 0.0
